- assay.target: human CB1 receptor (Homo sapiens)
- Construct: expressed in transfected cells; host or cells: HEK293
- Sequence (P21554 whole entry): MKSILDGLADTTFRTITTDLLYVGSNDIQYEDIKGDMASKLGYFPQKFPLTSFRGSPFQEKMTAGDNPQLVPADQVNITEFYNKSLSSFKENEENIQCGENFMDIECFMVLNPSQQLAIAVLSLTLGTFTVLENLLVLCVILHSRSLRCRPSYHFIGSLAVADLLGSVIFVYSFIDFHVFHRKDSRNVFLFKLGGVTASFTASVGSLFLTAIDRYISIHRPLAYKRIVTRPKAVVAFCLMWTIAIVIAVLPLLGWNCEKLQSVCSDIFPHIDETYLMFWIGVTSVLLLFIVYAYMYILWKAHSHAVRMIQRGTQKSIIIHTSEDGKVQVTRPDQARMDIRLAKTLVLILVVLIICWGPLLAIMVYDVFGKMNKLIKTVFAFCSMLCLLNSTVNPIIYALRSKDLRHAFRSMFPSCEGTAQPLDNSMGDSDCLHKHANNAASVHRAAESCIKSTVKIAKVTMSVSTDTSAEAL
- experimental.details: bioSensAll β-arrestin plasma membrane translocation BRET biosensor (+GRK2) assay (antagonism of CP-55,940)
- Assay type: cell-based
- conditions.used: HEK293 cells transfected with hCB1 and β-arrestin PM translocation biosensor (+GRK2), EC75 of CP-55,940 (100 nM), overnight incubation, read-out: CB1 wt βarr2 IC50
pIC50: −log10 of the molar value.
endpoint: pIC50

Known results for compounds:
> print(dat)
                              line.notation  endpoint  value.reported
1  CC(C)(O)COc1cc(N2CCC(C)(O)CC2)n2nc(-c3ccccc3Cl)c(-c3ccc(Cl)cc3)c2n1     pIC50            8.03
2  CC(C)(O)CNc1cc(N2CCC(C)(C(N)=O)CC2)n2nc(-c3ccccc3Cl)c(-c3ccc(Cl)cc3)c2n1     pIC50            7.60

I = COc1ccccc1-c1nn2c(-c3ccc(C(F)(F)F)cc3)cc(N3CCC[C@H]3CO)nc2c1-c1ccc(Cl)cc1
II = CC1(C(N)=O)CCN(c2cc(N3CC[C@@H](O)C3)nc3c(-c4ccc(Cl)cc4)c(-c4ccccc4Cl)nn23)CC1
Request: Please indicate which item has the smaller measured pIC50: I versus II Respond with the label that goes with your answer.
Result: I
